target: Endothelial PAS domain-containing protein 1 (Homo sapiens, UniProt Q99814, S304M)
Sequence (Q99814 whole entry S304M, the tested form may be a part): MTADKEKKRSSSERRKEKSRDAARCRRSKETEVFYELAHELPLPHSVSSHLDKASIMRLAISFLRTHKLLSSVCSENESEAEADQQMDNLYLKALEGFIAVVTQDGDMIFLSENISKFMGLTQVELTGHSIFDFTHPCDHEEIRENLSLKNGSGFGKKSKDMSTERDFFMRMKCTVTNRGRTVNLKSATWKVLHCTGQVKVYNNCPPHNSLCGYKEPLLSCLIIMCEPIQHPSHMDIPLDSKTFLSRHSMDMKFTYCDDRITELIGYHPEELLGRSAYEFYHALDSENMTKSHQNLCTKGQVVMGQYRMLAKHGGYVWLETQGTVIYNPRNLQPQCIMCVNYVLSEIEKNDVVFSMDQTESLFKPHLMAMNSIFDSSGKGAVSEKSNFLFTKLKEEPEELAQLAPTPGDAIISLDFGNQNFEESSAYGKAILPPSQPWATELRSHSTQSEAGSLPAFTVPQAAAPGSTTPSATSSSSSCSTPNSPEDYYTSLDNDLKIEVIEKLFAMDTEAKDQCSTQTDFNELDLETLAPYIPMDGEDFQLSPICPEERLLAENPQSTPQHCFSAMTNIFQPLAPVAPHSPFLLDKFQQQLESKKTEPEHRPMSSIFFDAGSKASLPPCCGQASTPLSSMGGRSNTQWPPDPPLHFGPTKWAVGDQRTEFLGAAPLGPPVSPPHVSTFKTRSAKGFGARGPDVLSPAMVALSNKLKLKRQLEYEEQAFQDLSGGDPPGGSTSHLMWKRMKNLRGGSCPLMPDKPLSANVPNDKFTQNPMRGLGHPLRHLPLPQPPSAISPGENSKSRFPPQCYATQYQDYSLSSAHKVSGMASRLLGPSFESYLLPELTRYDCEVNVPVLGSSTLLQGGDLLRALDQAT
Reported IC50 values for the following compounds.

given-smiles: Fc1ccc(Br)c(F)c1[C@@H]1C[C@H](c2cccc(Br)c2)Nc2nnnn21
IC50: > 30 µM
--
given-smiles: Brc1cccc([C@H]2C[C@@H](c3cccc(Br)c3)n3nnnc3N2)c1
IC50: > 30 µM
--
given-smiles: Clc1ccccc1[C@@H]1C[C@H](c2cccc(Br)c2)Nc2nnnn21
IC50: > 30 µM

###

biological target: Endothelial PAS domain-containing protein 1 (Homo sapiens, UniProt Q99814)
Sequence (Q99814 whole entry, the tested form may be a part): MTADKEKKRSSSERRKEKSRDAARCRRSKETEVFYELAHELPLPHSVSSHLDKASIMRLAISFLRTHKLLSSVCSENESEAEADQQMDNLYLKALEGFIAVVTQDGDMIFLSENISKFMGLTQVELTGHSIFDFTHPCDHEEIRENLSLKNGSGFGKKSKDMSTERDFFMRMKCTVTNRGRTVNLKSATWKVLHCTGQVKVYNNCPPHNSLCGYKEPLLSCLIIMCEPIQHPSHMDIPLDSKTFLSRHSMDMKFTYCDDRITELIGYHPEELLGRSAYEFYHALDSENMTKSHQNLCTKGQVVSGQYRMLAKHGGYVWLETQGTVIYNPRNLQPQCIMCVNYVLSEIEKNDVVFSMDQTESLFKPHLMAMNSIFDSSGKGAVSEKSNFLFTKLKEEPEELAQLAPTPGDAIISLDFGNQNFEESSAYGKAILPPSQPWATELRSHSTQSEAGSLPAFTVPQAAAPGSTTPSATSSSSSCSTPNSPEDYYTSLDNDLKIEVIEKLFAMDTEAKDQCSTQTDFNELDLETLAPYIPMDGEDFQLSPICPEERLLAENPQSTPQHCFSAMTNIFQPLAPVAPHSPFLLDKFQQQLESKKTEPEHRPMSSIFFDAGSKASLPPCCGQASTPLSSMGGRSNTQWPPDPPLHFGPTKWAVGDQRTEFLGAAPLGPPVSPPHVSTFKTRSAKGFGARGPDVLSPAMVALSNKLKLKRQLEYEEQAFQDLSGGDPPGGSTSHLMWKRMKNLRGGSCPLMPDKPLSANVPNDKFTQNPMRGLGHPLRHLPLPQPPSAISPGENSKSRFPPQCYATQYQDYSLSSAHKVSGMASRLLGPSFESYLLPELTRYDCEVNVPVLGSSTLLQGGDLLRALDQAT
pIC50: −log10 of the molar value.
measurement-kind: pIC50

given-smiles: Clc1ccc(Br)cc1[C@H]1C[C@@H](c2cccc(Br)c2)Nc2nnnn21
operator-symbol: =
readout-value: 7.06
//
given-smiles: Fc1cc(Br)cc([C@H]2C[C@@H](c3ccccc3)n3nnnc3N2)c1
operator-symbol: <
readout-value: 4.52
//
given-smiles: Brc1cccc([C@@H]2C[C@H](c3ccccc3Br)n3nnnc3N2)c1
operator-symbol: =
readout-value: 6.50
//
given-smiles: Clc1ccccc1[C@@H]1C[C@H](c2cccc(Br)c2)Nc2nnnn21
operator-symbol: <
readout-value: 4.52
//
given-smiles: Brc1cccc([C@H]2C[C@@H](c3ccccc3Br)n3nnnc3N2)c1
operator-symbol: =
readout-value: 4.55
//
given-smiles: Fc1cc(Br)cc([C@H]2C[C@@H](c3cccc(Br)c3)n3nnnc3N2)c1
operator-symbol: <
readout-value: 4.52
//
given-smiles: Clc1ccc(Br)cc1[C@@H]1C[C@H](c2cccc(Br)c2)Nc2nnnn21
operator-symbol: <
readout-value: 4.52
//
given-smiles: Brc1cccc([C@H]2C[C@@H](c3cccc(Br)c3)n3nnnc3N2)c1
operator-symbol: <
readout-value: 4.52
//
given-smiles: Fc1ccc(Br)c(F)c1[C@H]1C[C@@H](c2cccc(Br)c2)Nc2nnnn21
operator-symbol: =
readout-value: 7.49
//
given-smiles: Clc1ccccc1[C@H]1C[C@@H](c2cccc(Br)c2)Nc2nnnn21
operator-symbol: =
readout-value: 6.71
//
given-smiles: Brc1cccc([C@@H]2C[C@H](c3cccc(Br)c3)n3nnnc3N2)c1
operator-symbol: =
readout-value: 6.95
//
given-smiles: Fc1ccc(Br)c(F)c1[C@@H]1C[C@H](c2cccc(Br)c2)Nc2nnnn21
operator-symbol: =
readout-value: 4.65
